Tested on: 171881-019-R-J1-PDC tumor spheroid viability;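 further: spheroids exposed to compound for 7 days before viability read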
Assay: Anticancer human tumor 171881-019-R-J1-PDC patient-derived invasive breast carcinoma cell line growth inhibition [PI3K]
Conditions: second compound 0.1 µM; first compound 0.001 µM; active compounds read low; spheroids with HUVEC and MSC
Threshold check on viability, T/C: strictly below 70% is condition met; on or above 70% is condition not met.

{"Molecule": "Cn1ncnc1[C@H]1c2n[nH]c(=O)c3cc(F)cc(c23)N[C@@H]1c1ccc(F)cc1 + CC(Nc1ccc2c(c1)OCCn1cc(N3C(=O)OCC3C(F)F)nc1-2)C(N)=O", "Qualitative label": "condition met"}

Prompt: Consider the molecule CC(C)n1nc(-c2ccc3oc(N)nc3c2)c2c(N)ncnc21 + CC(Nc1ncnc2nc[nH]c12)c1cc2cccc(Cl)c2c(=O)n1-c1ccccc1 . Is its viability, T/C strictly less than 70%?
Response: condition not met

Prompt: Consider the molecule Cn1ncnc1[C@H]1c2n[nH]c(=O)c3cc(F)cc(c23)N[C@@H]1c1ccc(F)cc1 + COc1c(OCCCN2CCOCC2)ccc2c3n(c(=NC(=O)c4cnc(N)nc4)nc12)CCN3 . Is its viability, T/C strictly less than 70%?
Response: condition met

Prompt: Consider the molecule Cn1ncnc1[C@H]1c2n[nH]c(=O)c3cc(F)cc(c23)N[C@@H]1c1ccc(F)cc1 + CC(Nc1ncnc2nc[nH]c12)c1cc2cccc(Cl)c2c(=O)n1-c1ccccc1 . Is its viability, T/C strictly less than 70%?
Response: condition not met

Prompt: Consider the molecule CC(=O)c1c(C)c2cnc(Nc3ccc(N4CCNCC4)cn3)nc2n(C2CCCC2)c1=O + CC(Nc1ccc2c(c1)OCCn1cc(N3C(=O)OCC3C(F)F)nc1-2)C(N)=O . Is its viability, T/C strictly less than 70%?
Response: condition met

Prompt: Consider the molecule CC(=O)c1c(C)c2cnc(Nc3ccc(N4CCNCC4)cn3)nc2n(C2CCCC2)c1=O + COc1c(OCCCN2CCOCC2)ccc2c3n(c(=NC(=O)c4cnc(N)nc4)nc12)CCN3 . Is its viability, T/C strictly less than 70%?
Response: condition met

Prompt: Consider the molecule Cn1ncnc1[C@H]1c2n[nH]c(=O)c3cc(F)cc(c23)N[C@@H]1c1ccc(F)cc1 + Cc1nc(NC(=O)N2CCCC2C(N)=O)sc1-c1ccnc(C(C)(C)C(F)(F)F)c1 . Is its viability, T/C strictly less than 70%?
Response: condition met

Prompt: Consider the molecule CC(C)n1nc(-c2ccc3oc(N)nc3c2)c2c(N)ncnc21 + CC(Nc1ccc2c(c1)OCCn1cc(N3C(=O)OCC3C(F)F)nc1-2)C(N)=O . Is its viability, T/C strictly less than 70%?
Response: condition met

Prompt: Consider the molecule CC(C)n1nc(-c2ccc3oc(N)nc3c2)c2c(N)ncnc21 + COc1c(OCCCN2CCOCC2)ccc2c3n(c(=NC(=O)c4cnc(N)nc4)nc12)CCN3 . Is its viability, T/C strictly less than 70%?
Response: condition met

Prompt: Consider the molecule CC(=O)c1c(C)c2cnc(Nc3ccc(N4CCNCC4)cn3)nc2n(C2CCCC2)c1=O + CC(Nc1ncnc2nc[nH]c12)c1cc2cccc(Cl)c2c(=O)n1-c1ccccc1 . Is its viability, T/C strictly less than 70%?
Response: condition not met

Prompt: Consider the molecule CC(C)n1nc(-c2ccc3oc(N)nc3c2)c2c(N)ncnc21 + Cc1nc(NC(=O)N2CCCC2C(N)=O)sc1-c1ccnc(C(C)(C)C(F)(F)F)c1 . Is its viability, T/C strictly less than 70%?
Response: condition not met

Prompt: Consider the molecule CC(=O)c1c(C)c2cnc(Nc3ccc(N4CCNCC4)cn3)nc2n(C2CCCC2)c1=O + Cc1nc(NC(=O)N2CCCC2C(N)=O)sc1-c1ccnc(C(C)(C)C(F)(F)F)c1 . Is its viability, T/C strictly less than 70%?
Response: condition not met
